Test system: T-47D breast
Experiment: NCI tumour cell line growth inhibition, 48 h
Could you please report measured GI50 for the items listed next?

// fetch GI50 for COc1ccc2c(c1)[C@]1(C[C@H]1c1ccc3c(/C=C/c4ccc(CN5C[C@@H](C)O[C@@H](C)C5)cc4)n[nH]c3c1)C(=O)N2 ; system: T-47D breast
2680 nM

Fetch value of GI50 on T-47D breast for COc1ccc(C[n+]2c3ccccc3n3c4ccc(N)cc4ccc32)c(OC)c1OC .
1420 nM

Report GI50 from T-47D breast testing of CC1=CC[C@@H]2C(C)(C)C(=O)CC[C@@]2(C)[C@@H]1COc1ccc2ccc(=O)oc2c1
2690 nM

// fetch GI50; item: Cc1csc(/C=N/NC(=O)c2nnn(-c3ccnc4c(C(F)(F)F)cccc34)c2C)c1 ; system: T-47D breast
29500 nM

With T-47D breast as the test system, provide measured GI50 for this molecule: COc1ccc(Cl)cc1Nc1nc(C(F)(F)F)ccc1C(=O)N/N=C/c1ccc([N+](=O)[O-])cc1
1810 nM

State GI50 on T-47D breast. Entry: O=C(Cn1c(=O)c(-c2ccccc2)nc2ccccc21)c1ccc(Cl)cc1
> 100000 nM

Enter recorded GI50 with T-47D breast for Cc1cc(N2CCN(C)CC2)nc(NCc2cc(Nc3ccnc4cc(Cl)ccc34)ccc2F)n1 here.
1090 nM
